TARGET OR TEST SYSTEM: A1 human adenosine receptor (A1R) (Homo sapiens, UniProt P30542)
Sequence (P30542 1-326): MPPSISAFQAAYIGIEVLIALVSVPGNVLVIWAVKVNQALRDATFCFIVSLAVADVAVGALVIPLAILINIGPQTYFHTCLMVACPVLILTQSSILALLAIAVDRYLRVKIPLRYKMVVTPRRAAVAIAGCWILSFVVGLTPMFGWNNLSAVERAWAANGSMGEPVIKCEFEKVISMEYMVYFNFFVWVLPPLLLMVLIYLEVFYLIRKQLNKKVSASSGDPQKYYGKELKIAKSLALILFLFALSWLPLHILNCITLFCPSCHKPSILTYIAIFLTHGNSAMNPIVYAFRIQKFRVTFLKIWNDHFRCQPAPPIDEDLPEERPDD
ASSAY REMARKS: Radioligand binding competition assay, human A1 receptor in transfected CHO cells
SETTINGS: Cheng-Prusoff approximation
MEASURED PARAMETER: Ki
# output: number + unit

Ask: Request body: readout Ki, system A1 human adenosine receptor (A1R) (Homo sapiens, UniProt P30542), query N#Cc1c(C2CCCCC2)cc(-c2ccco2)nc1N [Compound 13] . Return the value.
Result: 70 nM

Ask: How about N#Cc1c(-c2ccccc2)cc(-c2ccc(F)cc2)nc1N [Compound 1] ?
Result: 394 nM

Ask: How about N#Cc1c(-c2ccccc2F)cc(-c2ccccc2F)nc1N [Compound 18] ?
Result: 78 nM

Ask: How about N#Cc1c(C2CCCCC2)cc(-c2ccccc2F)nc1N [Compound 9] ?
Result: 84 nM

Ask: How about COc1ccc(-c2cc(-c3ccccc3F)nc(N)c2C#N)cc1 [Compound 14] ?
Result: 108 nM

Ask: How about N#Cc1c(-c2ccccc2)cc(-c2ccc(O)cc2)nc1N [Compound 2] ?
Result: 142 nM

Ask: How about N#Cc1c(-c2ccc3c(c2)OCO3)cc(-c2ccccc2)nc1N [Compound 7] ?
Result: 25 nM

Ask: How about N#Cc1c(C2CCCCC2)cc(-c2ccccc2)nc1N [Compound 8] ?
Result: 294 nM
